Entries and their IC50
Target: human GPR84 receptor (Homo sapiens, UniProt Q9NQS5)
Sequence (Q9NQS5 whole entry): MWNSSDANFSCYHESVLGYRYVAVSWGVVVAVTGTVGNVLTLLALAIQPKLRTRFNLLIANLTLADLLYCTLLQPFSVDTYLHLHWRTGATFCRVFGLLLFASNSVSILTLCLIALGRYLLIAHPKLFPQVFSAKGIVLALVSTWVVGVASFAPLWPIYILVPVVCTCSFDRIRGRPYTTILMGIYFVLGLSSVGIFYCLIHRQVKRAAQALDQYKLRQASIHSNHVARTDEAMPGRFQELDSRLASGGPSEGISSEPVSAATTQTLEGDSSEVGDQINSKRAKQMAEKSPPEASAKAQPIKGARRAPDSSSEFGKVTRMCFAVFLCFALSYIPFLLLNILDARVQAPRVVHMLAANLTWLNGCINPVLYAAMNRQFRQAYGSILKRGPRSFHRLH
Assay: Gαi biosensor BRET assay (GPR84 antagonism vs agonist ZQ-16)
Details: Gαi biosensor BRET assay, HEK293 cells, 200 nmol/L agonist ZQ-16

# example entries with known answers
MOLECULE | EXPERIMENTAL_SYSTEM | PROPERTY_NAME | RESULT
Cc1cc(OCc2nnn[nH]2)cc(=O)n1[C@H](C)c1ccc(C#CC2CC2)cc1 | human GPR84 receptor (Homo sapiens, UniProt Q9NQS5) | IC50 | ≤ 300 nM
Cc1cc(OCC(=O)N2CC(CO)C2)cc(=O)n1[C@H](C)c1ccc(C#CC2CC2)cc1 | human GPR84 receptor (Homo sapiens, UniProt Q9NQS5) | IC50 | ≤ 300 nM
Cc1cc(OCC(=O)N2CC3(CC3)C2)cc(=O)n1[C@H](C)c1ccc(C#CC2CC2)cc1 | human GPR84 receptor (Homo sapiens, UniProt Q9NQS5) | IC50 | ≤ 300 nM
Cc1cc(OCC(=O)N2CC[C@H](C#N)C2)cc(=O)n1[C@H](C)c1ccc(C#CC2CC2)cc1 | human GPR84 receptor (Homo sapiens, UniProt Q9NQS5) | IC50 | ≤ 300 nM
Cc1cc(OCC(=O)N2C[C@@H](O)[C@@H](O)C2)cc(=O)n1[C@H](C)c1ccc(C#CC2CC2)cc1 | human GPR84 receptor (Homo sapiens, UniProt Q9NQS5) | IC50 | ≤ 300 nM
Cc1cc(OCC(=O)N2CC[C@@H](S(C)(=O)=O)C2)cc(=O)n1[C@H](C)c1ccc(C#CC2CC2)cc1 | human GPR84 receptor (Homo sapiens, UniProt Q9NQS5) | IC50 | ≤ 300 nM

For Cc1cc(OCC(O)C(C)(C)C)cc(=O)n1[C@H](C)c1ccc(C#CC2CC2)cc1 (stereo partly shown) , what is its reported IC50? 300 to 1000 nM
